tested on: MDA-MB-231 breast; assay: NCI-60 one-dose screen, 48 h (100 = growth as untreated, 0 = no growth, -100 = all killed); conditions: 10 µM unless noted
Compounds without any hit were thinned out: in the full panel of roughly 83,000, 20% have a hit.
Classification by growth follows these ranges: bin A = under 50%, bin B = from 50% up to 90%, bin C = 90% and over

Past entries and their recorded results:
[[record]]
compound = "COC(=O)[C@]12CC[C@@H](C)[C@H](C)[C@@H]1C1=CC[C@@H]3[C@@]4(C)C(C=O)=C[C@@](C)(CO)[C@@H]4[C@H](O)C[C@@]3(C)[C@]1(C)CC2"
category_label = "bin A"

[[record]]
compound = "CC(=O)O[C@]1(C(C)=O)CCC2C3C[C@H](C)C4=CC(=O)CC[C@]4(C)C3CC[C@@]21C (stereo partly drawn)"
category_label = "bin B"

[[record]]
compound = "COc1ccc2cc(-c3cc(OC)c(OC)c(OC)c3)c(=O)oc2c1"
category_label = "bin B"

[[record]]
compound = "CCN(CC)c1ccc2nc3c4ccccc4c(=NC(=O)c4ccccc4-c4c5ccc(N(CC)CC)cc5[o+]c5cc(N(CC)CC)ccc45)cc-3oc2c1"
category_label = "bin B"

[[record]]
compound = "O=C1c2cccc(NCCN=Cc3cc([N+](=O)[O-])ccc3O)c2C(=O)c2c(NCCN=Cc3cc([N+](=O)[O-])ccc3O)cccc21"
category_label = "bin B"

[[record]]
compound = "O=C1N=c2cc3c(cc2=C/C1=C/c1sc(=S)n(CCc2ccc(O)cc2)c1O)OCCO3"
category_label = "bin A"

[[record]]
compound = "Cc1ccc(-c2cc(-c3cccnc3)[nH]c(=O)c2C#N)cc1"
category_label = "bin C"

[[record]]
compound = "O=C(Nc1ccc(Nc2ccncc2)cc1)c1ccc(C(=O)Nc2ccc(Nc3ccncc3)cc2)cc1"
category_label = "bin B"


Data request: Dear colleague, I would appreciate it if you could identify the bin for CC1(C)OC2C(CO[Si](C)(C)C(C)(C)C)OC(n3c(I)c(C#C[Si](C)(C)C)c(=O)[nH]c3=O)C2O1 (stereo not drawn) and reply at your convenience.
Data returned: bin C

Data request: Dear colleague, I would appreciate it if you could identify the bin for "Cn1ccc2c(c1=O)C(=O)c1nccc3c1c-2nc1ccccc13" and reply at your convenience.
Data returned: bin A

Data request: Dear colleague, I would appreciate it if you could identify the bin for "Cc1ccc(S(=O)(=O)N/N=C\c2cc(Cl)ccc2O)cc1" and reply at your convenience.
Data returned: bin C
